target: UniProt P61169
Sequence (P61169 whole entry): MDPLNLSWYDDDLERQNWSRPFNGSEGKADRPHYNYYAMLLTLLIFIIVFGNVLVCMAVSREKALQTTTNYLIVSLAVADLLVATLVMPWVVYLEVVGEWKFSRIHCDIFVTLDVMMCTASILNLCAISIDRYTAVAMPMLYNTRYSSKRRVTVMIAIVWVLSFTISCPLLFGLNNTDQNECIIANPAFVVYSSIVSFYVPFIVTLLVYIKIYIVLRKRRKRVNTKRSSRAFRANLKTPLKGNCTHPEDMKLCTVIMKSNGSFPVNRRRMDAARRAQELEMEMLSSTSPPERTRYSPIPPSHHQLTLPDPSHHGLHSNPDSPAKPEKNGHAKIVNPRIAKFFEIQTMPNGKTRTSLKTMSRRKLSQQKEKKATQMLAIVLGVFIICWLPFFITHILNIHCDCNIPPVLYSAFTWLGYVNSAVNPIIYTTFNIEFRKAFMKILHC
measurement type: Ki (nM)
One number for each entry, in nM.

Field: example entries. Status: answers known.
CCCN(CCN1CCN(C(=O)c2c[nH]c3ccc(O)cc23)CC1)C1CCc2nc(N)sc2C1 (stereo not given)
1080
CCCN(CCN1CCN(C(=O)c2ccc3[nH]ccc3c2)CC1)[C@H]1CCc2nc(N)sc2C1
1030
CCCN(CCN1CCN(C(=O)c2c[nH]c3ccccc23)CC1)C1CCc2nc(N)sc2C1 (racemic)
1500
CCCN(CCN1CCN(Cc2c[nH]c3ccccc23)CC1)C1CCc2c(O)cccc2C1 (stereo not given)
82.1

Now for another entry.
Prompt line: Name the reported Ki value associated with the compound CCCN(CCCN1CCN(C(=O)c2cc3ccccc3[nH]2)CC1)C1CCc2nc(N)sc2C1 (racemic)
Response line: 928
